Target: Human immunodeficiency virus type 1 integrase (Human immunodeficiency virus 1, UniProt Q7ZJM1)
Sequence (Q7ZJM1 whole entry): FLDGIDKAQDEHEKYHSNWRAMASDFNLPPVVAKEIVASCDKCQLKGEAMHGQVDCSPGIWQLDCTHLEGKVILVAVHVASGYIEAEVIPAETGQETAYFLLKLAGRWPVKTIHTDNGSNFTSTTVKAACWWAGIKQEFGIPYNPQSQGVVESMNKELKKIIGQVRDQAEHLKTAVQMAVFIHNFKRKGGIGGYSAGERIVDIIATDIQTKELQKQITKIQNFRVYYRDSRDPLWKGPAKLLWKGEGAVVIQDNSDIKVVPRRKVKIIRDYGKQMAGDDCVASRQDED
Assay Method Text: Inhibitory activity against Integrase in 3'-end- processing
Measure Name: IC50 (µM)

{"Smiles": "O=C(O)c1ccc2ccc(/C=C/c3cc(O)cc(O)c3)nc2c1O", "IC50, µM": 3.2}

P = O=C(O)c1ccc2ccc(CCc3ccc(O)c(O)c3)nc2c1O
Q = O=C(O)c1ccc2ccc(/C=C/c3cc(O)c(O)c(I)c3)nc2c1O
R = COc1cc(/C=C/c2ccc3ccc(C(=O)O)c(O)c3n2)cc(O)c1O
Ask: Order the records, beginning with the lowest IC50 and ending with the highest. Your answer should be the labels, listed in the requested order.
Result: R, P, Q
(R: 0.7 µM, P: 2.3 µM, Q: 4 µM)

###

Here, each record is paired with measured CC50 data.
Assay Method Text: Toxic concentration, estimated by MTT transformation assay
Format: ADME, organism-based, Human immunodeficiency virus 1
Condition Summary: CEM cells; read-out: TC50 (the source's name)
Lab book: enter the figure in µM, no units written.

{"Smiles": "O=C(O)c1ccc2ccc(/C=C/c3ccccc3)nc2c1O", "Numeric Result": 31}
{"Smiles": "O=C(O)c1ccc2ccc(CCc3ccc(O)c(O)c3)nc2c1O", "Numeric Result": 61}
{"Smiles": "COc1cc(/C=C/c2ccc3ccc(C(=O)O)c(O)c3n2)ccc1O", "Numeric Result": 95}
{"Smiles": "Nc1ccc(/C=C/c2ccc3ccc(C(=O)O)c(O)c3n2)cc1", "Numeric Result": 100}
{"Smiles": "COC(=O)c1ccc2ccc(/C=C/c3ccc(O)c(O)c3)nc2c1O", "Numeric Result": 9.2}

Ask: Please look up its CC50: `CC(=O)Nc1ccc(/C=C/c2ccc3ccc(C(=O)O)c(O)c3n2)cc1`
Result: 47

Ask: Please look up its CC50: `O=C(O)c1ccc2ccc(/C=C/c3cc(O)c(O)c(O)c3)nc2c1O`
Result: 10

Ask: So what does the record say about CC50 for `Oc1ccc(/C=C/c2ccc3c(Cl)cc(Cl)c(O)c3n2)cc1O` ?
Result: 17

Ask: // returns reported CC50 for input `O=C(O)c1ccc2ccc(/C=C/c3ccc([N+](=O)[O-])cc3)nc2c1O`
Result: 43

Ask: What value of measured CC50 is listed for `O=C(O)c1ccc2ccc(/C=C/c3ccsc3)nc2c1O` ?
Result: 85

Ask: I would be grateful if you could share the reported CC50 for `COc1ccc(/C=C/c2ccc3ccc(C(=O)O)c(O)c3n2)cc1O` .
Result: 95

###

Target: UniProt:Q7ZJM1
Assay Method Text: Inhibitory activity against HIV-1 Integrase in 3'-end- processing with purified recombinant enzyme
Measure Name: pIC50
pIC50 (log units): -log10 of the concentration in mol/L.

Ask: I am curious: what pIC50 value has been reported for `O=C(O)c1ccc2ccc(/C=C/c3ccco3)nc2c1O` ?
Result: 5.72

###

Target: UniProt:Q7ZJM1
Assay Method Text: Inhibitory activity against HIV-1 Integrase in 3'-end- processing
Measure Name: IC50 (µM)

Worked examples, 5 molecules total:
{"Smiles": "Nc1ccc(/C=C/c2ccc3ccc(C(=O)O)c(O)c3n2)cc1", "Uom": "µM", "IC50": 3.5}
{"Smiles": "O=C(O)c1ccc2ccc(/C=C/c3ccccc3)nc2c1O", "Uom": "µM", "IC50": 5.3}
{"Smiles": "O=C(O)c1ccc2ccc(/C=C/c3ccsc3)nc2c1O", "Uom": "µM", "IC50": 3.4}
{"Smiles": "O=C(O)c1ccc2ccc(/C=C/c3cc(Br)c(O)c(Br)c3)nc2c1O", "Uom": "µM", "IC50": 1.3}
{"Smiles": "CC(=O)Nc1ccc(/C=C/c2ccc3ccc(C(=O)O)c(O)c3n2)cc1", "Uom": "µM", "IC50": 1.4}

I = COc1ccc(/C=C/c2ccc3ccc(C(=O)O)c(O)c3n2)cc1O
II = COc1cc(/C=C/c2ccc3ccc(C(=O)O)c(O)c3n2)ccc1O
III = O=C(O)c1ccc2ccc(/C=C/c3ccc(O)cc3)nc2c1O
IV = COc1cc(/C=C/c2ccc3ccc(C(=O)O)c(O)c3n2)cc(OC)c1O
Ask: Rank items: key IC50, increasing. Provide your answer as the labels ordered per the instruction.
Result: I, III, II, IV

###

Target: Human immunodeficiency virus type 1 integrase (Human immunodeficiency virus 1, UniProt Q7ZJM1)
Assay Method Text: Inhibitory activity against Integrase in strand transfer (integration)
pIC50: −log10 of the molar value.
Measure Name: pIC50

Take a look at these entries with their results.
{"Smiles": "COc1cc(/C=C/c2ccc3ccc(C(=O)O)c(O)c3n2)cc(O)c1O", "Numeric Result": 5.77}
{"Smiles": "O=C(O)c1ccc2ccc(/C=C/c3cc(O)cc(O)c3)nc2c1O", "Numeric Result": 5.49}

A = O=C(O)c1ccc2ccc(/C=C/c3cc(O)c(O)c(I)c3)nc2c1O
B = O=C(O)c1ccc2ccc(CCc3ccc(O)c(O)c3)nc2c1O
Ask: Of A and B , whose reported pIC50 is numerically smaller? Please reply using the label of the selected record.
Result: A
(A: 5.31, B: 5.82)

###

Test system: Human immunodeficiency virus 1
Assay Method Text: Antiviral activities against HIV-1 replication in CEM cells and its ability to lower the viral charge supernatants was reported
Assay type: functional, organism-based
Condition Summary: Human immunodeficiency virus 1, CCRF-CEM
pIC50: −log10 of the molar value.
pIC50 values, listed per item

{"Smiles": "O=C(O)c1ccc2ccc(/C=C/c3cc(O)cc(O)c3)nc2c1O", "pIC50": "< 4.00"}
{"Smiles": "O=C(O)c1ccc2ccc(/C=C/c3ccco3)nc2c1O", "pIC50": "< 4.00"}

Now let's try a different one.
Ask: Please state recorded pIC50 (tested on Human immunodeficiency virus 1) of `O=C(O)c1ccc2ccc(/C=C/c3cc(O)c(O)c(O)c3)nc2c1O`
Result: 5.92

###

Target: Human immunodeficiency virus type 1 integrase (Human immunodeficiency virus 1, UniProt Q7ZJM1)
Assay Method Text: Inhibitory activity against HIV-1 Integrase in strand transfer (integration)
pIC50: −log10 of the molar value.
Measure Name: pIC50

{"Smiles": "O=C(O)c1ccc2ccc(/C=C/c3cccnc3)nc2c1O", "Measure Name": "pIC50", "Numeric Result": 4.96}
{"Smiles": "O=C(O)c1ccc2ccc(/C=C/c3ccccc3)nc2c1O", "Measure Name": "pIC50", "Numeric Result": 5.68}
{"Smiles": "COc1cc(/C=C/c2ccc3ccc(C(=O)O)c(O)c3n2)ccc1O", "Measure Name": "pIC50", "Numeric Result": 5.43}

I = O=C(O)c1ccc2ccc(/C=C/c3ccc(O)cc3)nc2c1O
II = COc1cc(/C=C/c2ccc3ccc(C(=O)O)c(O)c3n2)cc(OC)c1O
Ask: Field: lower recorded pIC50 (choose I or II ) # reply format: chosen label
Result: II

###

Test system: Human immunodeficiency virus 1
Assay Method Text: Antiviral activities against HIV-1 replication in CEM cells and its ability to lower the viral charge supernatants was reported
Format: functional, organism-based
Condition Summary: Human immunodeficiency virus 1, CCRF-CEM
Measure Name: IC50 (µM)

{"Smiles": "O=C(O)c1ccc2ccc(/C=C/c3ccc(O)cc3)nc2c1O", "Target": "Human immunodeficiency virus 1", "Measure Name": "IC50", "Numeric Result": 95}
{"Smiles": "O=C(O)c1ccc2ccc(/C=C/c3ccc(O)cc3O)nc2c1O", "Target": "Human immunodeficiency virus 1", "Measure Name": "IC50", "Numeric Result": 80}
{"Smiles": "COc1cc(/C=C/c2ccc3ccc(C(=O)O)c(O)c3n2)cc(O)c1O", "Target": "Human immunodeficiency virus 1", "Measure Name": "IC50", "Numeric Result": 12}
{"Smiles": "O=C(O)c1ccc2ccc(/C=C/c3cc(O)c(O)c(I)c3)nc2c1O", "Target": "Human immunodeficiency virus 1", "Measure Name": "IC50", "Numeric Result": 6.8}
{"Smiles": "COc1cc(/C=C/c2ccc3ccc(C(=O)O)c(O)c3n2)ccc1O", "Target": "Human immunodeficiency virus 1", "Measure Name": "IC50", "Numeric Result": 3}
{"Smiles": "Nc1ccc(/C=C/c2ccc3ccc(C(=O)O)c(O)c3n2)cc1", "Target": "Human immunodeficiency virus 1", "Measure Name": "IC50", "Numeric Result": 50}

a = COc1cc(/C=C/c2ccc3ccc(C(=O)O)c(O)c3n2)cc(OC)c1O
b = O=C(O)c1ccc2ccc(/C=C/c3ccc(O)c(O)c3)nc2c1O
Ask: Of the two listed items, a and b , which carries the larger IC50 figure? Let me know the label of the one you choose.
Result: a
(a: 9 µM, b: 1.3 µM)

###

Target: Human immunodeficiency virus type 1 integrase (Human immunodeficiency virus 1)
Assay Method Text: Inhibitory activity against HIV-1 Integrase in strand transfer (integration)
pIC50: −log10 of the molar value.
Measure Name: pIC50

Some solved cases for reference:
{"Smiles": "O=C(O)c1ccc2ccc(/C=C/c3ccsc3)nc2c1O", "pIC50": 5.52}
{"Smiles": "Nc1ccc(/C=C/c2ccc3ccc(C(=O)O)c(O)c3n2)cc1", "pIC50": 5.66}
{"Smiles": "O=C(O)c1ccc2ccc(/C=C/c3ccc([N+](=O)[O-])cc3)nc2c1O", "pIC50": 5.77}

I = O=C(O)c1ccc2ccc(/C=C/c3cc(Br)c(O)c(Br)c3)nc2c1O
II = COc1ccc(/C=C/c2ccc3ccc(C(=O)O)c(O)c3n2)cc1O
Ask: // compare measured pIC50 between I and II ; output the lower one Please respond with the label that marks your chosen entry.
Result: II

Source: ChEMBL document CHEMBL1133718
